Molecular target: T1, rat MASP-2cf CCP1-CCP2-SP (rat, UniProt Q9JJS8 298-685)
T1 construct: range 298-685; Mw 42309 Da; also called rat MASP-2 catalytic fragment
T1 sequence (Q9JJS8 other isoform, or with tags, fused parts or gaps limits assumed, form in doubt): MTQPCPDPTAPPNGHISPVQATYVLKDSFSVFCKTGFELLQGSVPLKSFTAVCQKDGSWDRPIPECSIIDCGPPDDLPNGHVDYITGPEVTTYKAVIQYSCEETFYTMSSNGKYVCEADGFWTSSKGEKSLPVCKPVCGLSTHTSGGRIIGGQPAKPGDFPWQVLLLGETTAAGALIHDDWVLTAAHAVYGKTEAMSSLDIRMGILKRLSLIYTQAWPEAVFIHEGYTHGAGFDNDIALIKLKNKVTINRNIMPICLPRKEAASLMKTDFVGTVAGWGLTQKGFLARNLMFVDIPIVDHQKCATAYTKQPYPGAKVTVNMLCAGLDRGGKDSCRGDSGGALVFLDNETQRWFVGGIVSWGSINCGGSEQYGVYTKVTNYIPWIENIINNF
Assay: SPR, target immobilised
Where no end group is shown, it is not given here.
measure_name: kon (M⁻¹ s⁻¹)

binder | measure_name | recorded_measurement
EVO2d (designed binder, not fully specified; cysteine pairing not given here, Modified TFPI-D2 Kunitz domain; made as m1) KPDFCFLEEDPGPCRALKRRYFYNNQTKQCERFKYGGCLGNMNNFETLEECKNICEDG | kon | 405000
EVO2 (designed binder, not fully specified; ends and bridges not checked, Modified Kunitz domain TFPI-D2 of human TFPI-1; recombinant from E. coli, freed from a His6-S100A4 fusion by TEV protease; also called TFMI-2b) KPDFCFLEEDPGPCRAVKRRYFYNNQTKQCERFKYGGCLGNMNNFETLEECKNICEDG | kon | 310000
EVO222 (designed binder, not fully specified; cysteine pairing not given here, Modified TFPI-D2 Kunitz domain; made as m1) KPDFCFLENDPGLCRAAAVRYFYNNQTKQCERFYYGGCLGNMNNFVTLEECKNICEDG | kon | 463000
EVO212 (designed binder, not fully specified; ends and bridges not checked, Modified TFPI-D2 Kunitz domain; made as m1) KPDFCFLENDPGLCRALKRRYFYNNQTKQCERFGYGGCLGNMNNFVTLEECKNICEDG | kon | 492000
